IC50 values for the compounds below.
EXPERIMENTAL SYSTEM: wt human TYK2, catalytic site (Homo sapiens)
Construct: wt human TYK2, catalytic site
Sequence (P29597 897-1176 limits assumed): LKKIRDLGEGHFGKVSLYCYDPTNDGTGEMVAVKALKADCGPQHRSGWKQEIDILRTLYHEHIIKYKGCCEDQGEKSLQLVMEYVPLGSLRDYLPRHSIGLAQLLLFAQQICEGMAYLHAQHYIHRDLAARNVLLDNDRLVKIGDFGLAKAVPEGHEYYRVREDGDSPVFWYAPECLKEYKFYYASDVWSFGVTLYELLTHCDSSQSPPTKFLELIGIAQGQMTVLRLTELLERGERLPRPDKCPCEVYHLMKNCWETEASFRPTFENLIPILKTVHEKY
ASSAY NAME: HTRF KinEASE assay, TYK2
CONDITION: 1 μM ATP; read-out: IC50, Activity Toward TYK2

Solved entries (count: 2):
NC(=O)c1nn(-c2c(Cl)cccc2Cl)nc1Nc1ccc(C(=O)N2CCCC2)cn1 : 0.01 to 0.1 µM
CCn1cc(C(F)(F)F)nc1-c1ccc(Nc2cn(-c3c(F)cccc3F)nc2C(N)=O)cc1 : 0.01 to 0.1 µM

Turning to the following compound.
Request: Find the recorded IC50 belonging to "NC(=O)c1nn(-c2c(Cl)cccc2Cl)cc1Nc1ccc(C(=O)N2CC(F)(F)C(F)(F)C2)cc1" and report it.
Result: < 0.01 µM
